Protein target, amino acids: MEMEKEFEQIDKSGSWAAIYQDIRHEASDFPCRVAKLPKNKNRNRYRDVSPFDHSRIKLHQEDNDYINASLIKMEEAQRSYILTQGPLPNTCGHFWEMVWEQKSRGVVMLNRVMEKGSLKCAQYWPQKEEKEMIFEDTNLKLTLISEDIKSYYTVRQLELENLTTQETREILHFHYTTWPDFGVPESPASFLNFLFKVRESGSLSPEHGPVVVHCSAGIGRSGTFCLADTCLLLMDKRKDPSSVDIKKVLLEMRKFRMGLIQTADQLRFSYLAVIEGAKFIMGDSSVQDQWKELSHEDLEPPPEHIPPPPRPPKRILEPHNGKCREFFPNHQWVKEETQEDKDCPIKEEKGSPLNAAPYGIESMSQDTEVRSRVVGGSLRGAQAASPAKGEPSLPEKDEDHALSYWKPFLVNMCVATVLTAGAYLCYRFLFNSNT
Examples of molecules with documented IC50 follow.

Worked examples follow.
>  <Smiles Notation>
NC(=O)c1sc(Br)c(Br)c1OCC(=O)O

>  <IC50>
> 2500 µM

$$$$
>  <Smiles Notation>
O=C(O)c1sc(Br)c(Br)c1OCC(F)(F)F

>  <IC50>
> 2500 µM

$$$$
>  <Smiles Notation>
O=C(O)COc1c(C(=O)N2CCOCC2)sc(Br)c1Br

>  <IC50>
210 µM

$$$$

Looking for the measured IC50 of "Cc1nc(-c2sc(Br)c(Br)c2OCC(=O)O)no1" , can you help? > 2500 µM

Query "CC(C)c1nc(-c2sc(Br)c(Br)c2OCC(=O)O)no1" next > 2500 µM

Now give it for "O=C(O)COc1c(C(=O)CO)sc(Br)c1Br" too. 330 µM

----------
Assay Notes: Permeability of compound by PAMPA
Type: ADME
Measurement Context: read-out: permeability
Quantity Measured: Papp (×10⁻⁶ cm/s)

A. O=C1CN(c2c(Cl)sc(-c3ccccc3)c2Cl)S(=O)(=O)N1
B. Cc1c(-c2cccc(OC3CCN(S(=O)(=O)Cc4ccccc4)CC3)c2)sc(-c2nn[nH]n2)c1OCC(=O)O
In the pair A and B , the larger recorded Papp belongs to which? Pick one; state its label. A
(A: 3.54 ×10⁻⁶ cm/s, B: 0.22 ×10⁻⁶ cm/s)

----------
Listed here are compounds together with their documented IC50.
Protein target, amino acids: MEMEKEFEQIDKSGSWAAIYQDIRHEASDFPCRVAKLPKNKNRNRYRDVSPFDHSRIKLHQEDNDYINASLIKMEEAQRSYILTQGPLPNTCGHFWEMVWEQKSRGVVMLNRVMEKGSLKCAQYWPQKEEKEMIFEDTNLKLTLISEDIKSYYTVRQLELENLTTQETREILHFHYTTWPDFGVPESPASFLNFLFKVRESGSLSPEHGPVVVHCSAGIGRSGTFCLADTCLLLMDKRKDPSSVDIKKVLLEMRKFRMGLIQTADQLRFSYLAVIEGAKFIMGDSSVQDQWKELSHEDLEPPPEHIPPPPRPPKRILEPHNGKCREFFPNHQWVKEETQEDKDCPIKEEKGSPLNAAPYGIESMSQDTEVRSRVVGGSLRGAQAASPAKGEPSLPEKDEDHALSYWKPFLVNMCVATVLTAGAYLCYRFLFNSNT

>  <Smiles Notation>
O=C(O)COc1c(C(=O)Nc2nccs2)sc(Br)c1Br

>  <IC50>
> 2500 µM

$$$$

Consider the compound "O=C(O)COc1csc(Br)c1Br" and give its measured IC50. > 2500 µM

# iterate: "N#CCOc1c(C(=O)O)sc(Br)c1Br" > 2500 µM
